# key: entry, value: cAMP EC50
Biological target: T1, PTH/PTHrP receptor (P1R), wild-type, full-length (human, UniProt Q03431 27-593)
T1 sequence (looked up): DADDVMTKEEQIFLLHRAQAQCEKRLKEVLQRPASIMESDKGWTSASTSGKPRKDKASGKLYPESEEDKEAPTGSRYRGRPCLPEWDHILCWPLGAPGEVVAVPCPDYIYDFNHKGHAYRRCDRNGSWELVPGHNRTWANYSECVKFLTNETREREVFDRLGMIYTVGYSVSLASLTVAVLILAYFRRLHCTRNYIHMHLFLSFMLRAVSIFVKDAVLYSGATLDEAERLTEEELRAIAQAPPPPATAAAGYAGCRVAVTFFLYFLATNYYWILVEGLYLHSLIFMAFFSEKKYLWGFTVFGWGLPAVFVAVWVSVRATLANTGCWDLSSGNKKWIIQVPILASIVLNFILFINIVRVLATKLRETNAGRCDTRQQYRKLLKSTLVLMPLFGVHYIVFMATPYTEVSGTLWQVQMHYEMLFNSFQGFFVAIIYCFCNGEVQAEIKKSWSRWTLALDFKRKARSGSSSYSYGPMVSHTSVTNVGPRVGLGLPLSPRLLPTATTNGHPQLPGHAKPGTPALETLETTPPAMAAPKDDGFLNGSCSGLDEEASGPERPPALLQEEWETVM
Assay: cell-based or functional assay
No end group written: not given here.
Write the number in nM without appending the unit.

INSERT INTO measurements (binder, property, recorded_number) VALUES
  ('SVSEIQLMHNLGKHLNSMERVEWLRKKLQDVHNY-NH2 (Human PTH(1-34) analog with Tyr at 34; also called [Tyr^34]hPTH(1-34)NH2; PTH(1-34) scaffold peptide) [PTH(1-34) ([Tyr^34]hPTH(1-34)amide)]', 'cAMP EC50', 270);

Value lookup for cAMP EC50; key = SVSEIALMHALGKHLNSMERVEWLRKKLQDVHNY-NH2 (Double Ala analog of [Tyr^34]hPTH(1-34)amide) [[Ala^6,10]PTH(1-34)]
300

Fill in: cAMP EC50 of SVSEIQLMHALGKHLNSMERVEWLRKKLQDVHNY-NH2 [[Ala^10]PTH(1-34)] is ___
270

Which cAMP EC50 reading was recorded for the binder SVSEIALMHNLGKHLNSMERVEWLRKKLQDVHNY-NH2 (Gln6->Ala analog of [Tyr^34]hPTH(1-34)amide) [[Ala^6]PTH(1-34)] ?
170
